System: NCI-H23 lung
PROTOCOL: NCI tumour cell line growth inhibition, 48 h
REPORTED PROPERTY: GI50

Known value: NCI-H23 lung GI50 of the molecule COc1cc2c3c(n(CCCN)c(=O)c2cc1OC)-c1ccc(N(C)C)cc1C3=O equals 16600 nM

---
Form field, GI50 with NCI-H23 lung, item O=C1NC(=NCc2c(Cl)cccc2Cl)S/C1=C\c1ccc2ncccc2c1 : 11600 nM

The molecule COc1ccc(C2NC(=O)c3cc4c(cc3N2)OCO4)cc1 (stereo unspecified) on NCI-H23 lung: GI50 was 1250 nM

Reported GI50 (NCI-H23 lung) for entry C#CCNCCCN1C(=O)c2ccc3c4c(ccc(c24)C1=O)C(=O)N(CCCNCC#C)C3=O is 220 nM

Fill in: NCI-H23 lung GI50 for CCOC(=O)c1cc(C(=O)c2cc(OC)c(OC)c(OC)c2)n2nc(C)ccc12 = 418 nM

GI50 on NCI-H23 lung for Cn1cc(C2=C(n3ccc4ccccc43)C(=O)NC2=O)c2ccccc21 is > 25000 nM

----------
Here, each record is paired with measured TGI data.
Tested on: SN12C renal
PROTOCOL: NCI tumour cell line growth inhibition, 48 h

Recorded result, CS(=O)(=O)Nc1ccc2c(c1)N(S(C)(=O)=O)CC2COS(C)(=O)=O (stereo not given) , TGI: > 100 µM

Next:
Briefly, TGI measured for COCCOc1nc(-c2ccccc2)nc2ccccc12 : > 100 µM

----------
Tested on: U251 CNS
PROTOCOL: NCI tumour cell line growth inhibition, 48 h
Below, each entry is listed with its recorded TGI.

Worked examples follow.
Log: U251 CNS, compound Fc1ccc(-c2ncn(C3CCNCC3)c2-c2ccnc(Oc3cccc(C(F)(F)F)c3)n2)cc1 , TGI = 7.08 µM

Record for O=C(OC1C(Oc2ccccc2COC(=O)C2(O)C=CCCC2=O)OC(CO)C(O)C1O)c1ccccc1 (stereo not drawn) under target or system U251 CNS: TGI reported as > 100 µM

Shift focus to the following entry.
Log: U251 CNS, compound CN1C(=O)N(C)C2(O)c3ccccc3C(=O)C12O (stereo not drawn) , TGI = > 100 µM

----------
Tested on: MCF7 breast
PROTOCOL: NCI tumour cell line growth inhibition, 48 h
Each entry below carries its reported TGI.

See these solved cases before continuing.
Query COc1cc2c(cc1OCCCCCN1CCN(CCCCCOc3cc4c(cc3OC)C(=O)C3CCC[C@H]3C=N4)CC1)N=C[C@@H]1CCCC1C2=O (stereo not given in full) yields TGI of > 100 µM

Input CCOP(=O)(OCC)C(C)(C)OC(=O)NC(F)(F)F . Output TGI: > 100 µM

Below: the item to evaluate.
Lab note: measured TGI of COc1ccc(/C=C(/C(=O)N2CCCCC2)c2cc(OC)c(OC)c(OC)c2)cc1 was > 100 µM

----------
Test system: SF-539 CNS
PROTOCOL: NCI tumour cell line growth inhibition, 48 h; in the data active means GI50 below about 0.43 µM; inactive means the rest
Assign a class; possible classes are 1.0 = active, 0.0 = inactive

// below: answered compounds
For this compound, state the assay outcome: COc1cc(-c2cc(-c3nc4ccc(F)cc4[nH]3)[nH]n2)cc(OC)c1OC
0.0

Recorded test call requested for O=C([CH-]C(=O)C(F)(F)F)c1ccccc1.O=C([CH-]C(=O)C(F)(F)F)c1ccccc1.[O]=[U+2]=[O]
0.0

So what was the verdict on COc1cc2c3c(n(CCCN)c(=O)c2cc1OC)-c1ccc(N(C)C)cc1C3=O in this test?
0.0

Recorded test outcome, item COc1cc2nccc(Oc3ccc(NC(=O)C4(C(=O)Nc5ccc(F)cc5)CC4)cc3)c2cc1OC(=O)c1ccc(N)cc1
1.0

Now let's try a different one.
Write down the call the test reported for this compound. Item: Cn1cc(-c2csc(-c3c[nH]c4ccccc34)n2)c2cccnc21
0.0
